B1: LINE1-full (parent)
chain: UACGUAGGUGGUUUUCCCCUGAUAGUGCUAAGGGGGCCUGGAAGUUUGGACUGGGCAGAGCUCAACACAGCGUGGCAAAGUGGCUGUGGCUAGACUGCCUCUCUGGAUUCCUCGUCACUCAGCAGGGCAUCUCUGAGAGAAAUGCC

Variants of: B1
Assay: self-cleavage, relative activity (ratio to wild type); higher = more cleavage; in vitro, sequencing; the parent is a self-cleaving ribozyme
Binary call on self-cleavage: MET from 1 upward, NOT MET beneath that.

[
  {
    "mutant_label": "A6G C145U",
    "answer_label": "MET"
  },
  {
    "mutant_label": "U85A A142C",
    "answer_label": "NOT MET"
  },
  {
    "mutant_label": "G36U U62C",
    "answer_label": "NOT MET"
  },
  {
    "mutant_label": "U23A U81C",
    "answer_label": "NOT MET"
  },
  {
    "mutant_label": "U15C A138U",
    "answer_label": "MET"
  },
  {
    "mutant_label": "U52A U119C",
    "answer_label": "MET"
  },
  {
    "mutant_label": "U100A",
    "answer_label": "NOT MET"
  },
  {
    "mutant_label": "U112G",
    "answer_label": "MET"
  },
  {
    "mutant_label": "U112C G139A",
    "answer_label": "MET"
  },
  {
    "mutant_label": "C37U A57U",
    "answer_label": "NOT MET"
  },
  {
    "mutant_label": "U15A C113U",
    "answer_label": "NOT MET"
  },
  {
    "mutant_label": "U47C A59G",
    "answer_label": "NOT MET"
  },
  {
    "mutant_label": "A59G U115C",
    "answer_label": "NOT MET"
  },
  {
    "mutant_label": "C38A A140U",
    "answer_label": "MET"
  },
  {
    "mutant_label": "U62G A141G",
    "answer_label": "NOT MET"
  },
  {
    "mutant_label": "A77U A129C",
    "answer_label": "MET"
  },
  {
    "mutant_label": "G74C",
    "answer_label": "MET"
  },
  {
    "mutant_label": "A121C G127A",
    "answer_label": "MET"
  },
  {
    "mutant_label": "U23C C66U",
    "answer_label": "NOT MET"
  },
  {
    "mutant_label": "A22G C128U",
    "answer_label": "MET"
  },
  {
    "mutant_label": "G27A C98A",
    "answer_label": "NOT MET"
  },
  {
    "mutant_label": "U20C C133U",
    "answer_label": "MET"
  },
  {
    "mutant_label": "C110U G127A",
    "answer_label": "MET"
  },
  {
    "mutant_label": "U46C U108A",
    "answer_label": "MET"
  },
  {
    "mutant_label": "A78G C145U",
    "answer_label": "MET"
  },
  {
    "mutant_label": "U1C A141G",
    "answer_label": "NOT MET"
  },
  {
    "mutant_label": "U20C U96A",
    "answer_label": "NOT MET"
  },
  {
    "mutant_label": "A57G A121G",
    "answer_label": "MET"
  },
  {
    "mutant_label": "G80A U91A",
    "answer_label": "NOT MET"
  },
  {
    "mutant_label": "U5C U87A",
    "answer_label": "NOT MET"
  },
  {
    "mutant_label": "A67G G122A",
    "answer_label": "NOT MET"
  },
  {
    "mutant_label": "U12A A140G",
    "answer_label": "MET"
  },
  {
    "mutant_label": "U52C A129G",
    "answer_label": "MET"
  },
  {
    "mutant_label": "A22U U102C",
    "answer_label": "MET"
  },
  {
    "mutant_label": "C56G U91C",
    "answer_label": "NOT MET"
  },
  {
    "mutant_label": "U46A G114A",
    "answer_label": "MET"
  },
  {
    "mutant_label": "U112C A129U",
    "answer_label": "MET"
  },
  {
    "mutant_label": "A79G C98A",
    "answer_label": "NOT MET"
  },
  {
    "mutant_label": "C63U U96A",
    "answer_label": "NOT MET"
  },
  {
    "mutant_label": "G53A A124G",
    "answer_label": "NOT MET"
  },
  {
    "mutant_label": "U12C A59U",
    "answer_label": "NOT MET"
  },
  {
    "mutant_label": "C76U A117G",
    "answer_label": "MET"
  },
  {
    "mutant_label": "G21A A57C",
    "answer_label": "NOT MET"
  },
  {
    "mutant_label": "A22G U73C",
    "answer_label": "MET"
  },
  {
    "mutant_label": "A57G A141G",
    "answer_label": "NOT MET"
  },
  {
    "mutant_label": "A78U C99U",
    "answer_label": "MET"
  },
  {
    "mutant_label": "G34U U46A",
    "answer_label": "MET"
  },
  {
    "mutant_label": "G10A U26C",
    "answer_label": "NOT MET"
  },
  {
    "mutant_label": "A79G U85G",
    "answer_label": "NOT MET"
  },
  {
    "mutant_label": "G72A A124G",
    "answer_label": "NOT MET"
  },
  {
    "mutant_label": "U14C U100A",
    "answer_label": "NOT MET"
  },
  {
    "mutant_label": "U13A G83A",
    "answer_label": "NOT MET"
  },
  {
    "mutant_label": "G36A A43G",
    "answer_label": "MET"
  },
  {
    "mutant_label": "G55U A59G",
    "answer_label": "NOT MET"
  },
  {
    "mutant_label": "U26A U119A",
    "answer_label": "NOT MET"
  },
  {
    "mutant_label": "U47C U143C",
    "answer_label": "MET"
  },
  {
    "mutant_label": "U45A U46G",
    "answer_label": "MET"
  },
  {
    "mutant_label": "U23A A24G",
    "answer_label": "NOT MET"
  },
  {
    "mutant_label": "U14G A57G",
    "answer_label": "MET"
  },
  {
    "mutant_label": "U62C A64G",
    "answer_label": "NOT MET"
  },
  {
    "mutant_label": "G75U U115A",
    "answer_label": "MET"
  },
  {
    "mutant_label": "G32A G86U",
    "answer_label": "NOT MET"
  },
  {
    "mutant_label": "U91A",
    "answer_label": "NOT MET"
  },
  {
    "mutant_label": "C84A U108A",
    "answer_label": "NOT MET"
  },
  {
    "mutant_label": "A43C U100A",
    "answer_label": "MET"
  },
  {
    "mutant_label": "U87A U115A",
    "answer_label": "NOT MET"
  },
  {
    "mutant_label": "A22G A136C",
    "answer_label": "MET"
  },
  {
    "mutant_label": "U15C A57C",
    "answer_label": "NOT MET"
  },
  {
    "mutant_label": "G21A U62C",
    "answer_label": "NOT MET"
  },
  {
    "mutant_label": "A2C",
    "answer_label": "MET"
  },
  {
    "mutant_label": "U52G U143A",
    "answer_label": "MET"
  },
  {
    "mutant_label": "U12C U115C",
    "answer_label": "MET"
  },
  {
    "mutant_label": "U47C C84G",
    "answer_label": "NOT MET"
  },
  {
    "mutant_label": "A22G G106U",
    "answer_label": "NOT MET"
  },
  {
    "mutant_label": "U20A U45A",
    "answer_label": "MET"
  },
  {
    "mutant_label": "G33A G83A",
    "answer_label": "NOT MET"
  },
  {
    "mutant_label": "U1A U109A",
    "answer_label": "MET"
  },
  {
    "mutant_label": "U1C C133U",
    "answer_label": "MET"
  },
  {
    "mutant_label": "U45C G74U",
    "answer_label": "MET"
  },
  {
    "mutant_label": "U102C",
    "answer_label": "MET"
  },
  {
    "mutant_label": "U13A G40A",
    "answer_label": "MET"
  },
  {
    "mutant_label": "U46C C111U",
    "answer_label": "MET"
  },
  {
    "mutant_label": "U14C A50U",
    "answer_label": "MET"
  },
  {
    "mutant_label": "C37U U62C",
    "answer_label": "NOT MET"
  },
  {
    "mutant_label": "G41C U100C",
    "answer_label": "MET"
  }
]
